# ASSAY_NAME: Example 18 Part 2: multiple dose PK (20 mg QID) of 3,4-DAP and 3-N-acetyl metabolite in slow and fast acetylators
# Format: in vivo, human
# MEASUREMENT_CONDITIONS: both sexes, human, plasma, oral, 20 mg, Day 3, slow acetylators, Dose 2 interval, 20 mg QID, arith. mean; read-out: AUC0-4

MOLECULE | AUC(0-t) [ng·h/mL]
CC(=O)Nc1cnccc1N [3-N-acetyl amifampridine, N-(4-aminopyridin-3-yl)acetamide] | 684

====

# ASSAY_NAME: Example 18 Part 2: multiple dose PK (20 mg QID) of 3,4-DAP and 3-N-acetyl metabolite in slow and fast acetylators
# Type: in vivo, human
# MEASUREMENT_CONDITIONS: both sexes, human, plasma, oral, 20 mg, Day 3, Dose 2, fast acetylators, 20 mg QID; read-out: Mean Tmax

SMILES_REPR | Tmax, min
Nc1ccncc1N | 54
